meta.source: BindingDB's records for patent WO2022103411

- SYSTEM_NAME: von Hippel-Lindau disease tumor suppressor (Homo sapiens, UniProt P40337)
- Sequence (P40337 whole entry): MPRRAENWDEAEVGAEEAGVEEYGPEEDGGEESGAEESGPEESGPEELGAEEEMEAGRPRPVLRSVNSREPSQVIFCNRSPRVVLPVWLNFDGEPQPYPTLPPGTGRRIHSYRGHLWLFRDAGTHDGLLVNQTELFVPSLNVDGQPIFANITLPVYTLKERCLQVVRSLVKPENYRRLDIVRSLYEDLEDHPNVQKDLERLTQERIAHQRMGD
- RUN_DESCRIPTION: VHL HEK-293 BRET Assay
pIC50: −log10 of the molar value.
OUTCOME_MEASURE: pIC50

[[record]]
molecule = "Cc1ncsc1-c1ccc2c(c1)CCCC[C@@H]2NC(=O)[C@@H]1C[C@@H](O)CN1C(=O)[C@@H](n1cc(C2CC2)nn1)C(C)(C)C"
system_name = "von Hippel-Lindau disease tumor suppressor (Homo sapiens, UniProt P40337)"
meas_value = "> 8.30"

[[record]]
molecule = "Cc1ncsc1-c1ccc([C@H](C)NC(=O)C2C[C@@H](O)CN2C(=O)[C@H](C2C3CC4CC(C3)CC2C4)n2cc(C3CC3)nn2)cc1 (stereo partly drawn)"
system_name = "von Hippel-Lindau disease tumor suppressor (Homo sapiens, UniProt P40337)"
meas_value = "> 8.30"

[[record]]
molecule = "CCC(C)(C)[C@@H](C(=O)N1C[C@H](O)C[C@H]1C(=O)N[C@@H](C)c1ccc(-c2scnc2C)cc1)n1cc(C2CC2)nn1"
system_name = "von Hippel-Lindau disease tumor suppressor (Homo sapiens, UniProt P40337)"
meas_value = "> 8.30"

